Test system: SK-VLB
Experiment: Inhibitory concentration that reduced the viability of SKVLB cell population by 50%.
Format: functional, cell-based
Details: Homo sapiens
REPORTED METRIC: IC50

Please review the entries below; each comes with its answer.
CCCC(=O)Nc1cn(COC)c(C(=O)NCCOc2ccc3nc4c(cc3c2)Cn2c-4cc3c(c2=O)COC(=O)C3(O)CC)n1 (stereo unspecified)    > 10 µM
CCCC(=O)Nc1cc(C(=O)Nc2cc(C(=O)NCCOc3ccc4nc5c(cc4c3)Cn3c-5cc4c(c3=O)COC(=O)C4(O)CC)n(COC)c2)n(COC)c1 (racemic)    > 10 µM
CCCC(=O)Nc1cn(COC)c(C(=O)Nc2cn(COC)c(C(=O)NCCOc3ccc4nc5c(cc4c3)Cn3c-5cc4c(c3=O)COC(=O)C4(O)CC)n2)n1 (racemic)    > 10 µM
CCC1(O)C(=O)OCc2c1cc1n(c2=O)Cc2cc3cc(OCCNC(=O)c4cc(NC(=O)c5cc(NC(=O)CCCN(C)C)cn5COC)cn4COC)ccc3nc2-1 (racemic)    > 10 µM
CCC1(O)C(=O)OCc2c1cc1n(c2=O)Cc2cc3cc(OCCNC(=O)c4cc(NC(=O)c5cc(NC(=O)c6ccc(NC(=O)CCCN(C)C)n6COC)cn5COC)cn4COC)ccc3nc2-1 (racemic)    > 10 µM

Below: the item to evaluate.
Ask: What IC50 value was documented for this compound, CCC1(O)C(=O)OCc2c1cc1n(c2=O)Cc2cc3cc(OCCNC(=O)c4cc(NC(=O)CCCN(C)C)cn4COC)ccc3nc2-1 (stereo unspecified) ?
Result: 3.5 µM

Data provenance is ChEMBL document CHEMBL1130394.
